Test: growth inhibition of DIPG cells – cell-based, MIPE5.0 library, qHTS (AID 1347068);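 on IC50: cells exposed to compound for 48 hours before viability readout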
Settings: SU-DIPG-XXV viability
Inconclusive results are not listed. Active and inactive are the calls of the source. Cut-off not given; nearly all actives show IC50 up to about 30 µM.
Respond using exactly one of the listed classes: active, inactive

Each compound tested received a call. Report the one for COc1cc2c(cc1OC)C1CC(=O)C(CC(C)C)CN1CC2 (stereo not given) .
inactive

Each compound tested received a call. Report the one for O=C(Nc1ccc(F)c(C(F)(F)F)c1)Nc1nnc(-c2ccncc2)s1 .
inactive

Each compound tested received a call. Report the one for Cc1nc2cccc(N)c2c(=O)n1C1CCC(=O)NC1=O (stereo not given) .
inactive

Each compound tested received a call. Report the one for O=C(O)CC(C(=O)O)n1c(O)c(C2=c3cc(Br)ccc3=NC2=O)sc1=S (stereo not given) .
inactive

Each compound tested received a call. Report the one for CCCCCCCCCCCCc1ccc(S(=O)(=O)Nc2nncs2)cc1 .
inactive

Each compound tested received a call. Report the one for CCNCCS(=O)(=O)NC[C@@]1(c2ccccc2)SC(NC(=O)C(C)(C)C)=NN1C(=O)C(C)(C)C .
active

Each compound tested received a call. Report the one for O=C(NC[C@H](O)CN1CCc2ccccc2C1)c1cc(NC2COC2)ncn1 .
inactive

Each compound tested received a call. Report the one for CN[C@H]1CCc2cc(OC)c(OC)c(OC)c2-c2ccc(OC)c(=O)cc21 .
active

Each compound tested received a call. Report the one for Cc1ccc(-c2ncn(-c3ccc(Nc4nccc(-c5cccc(N6CCOCC6)c5)n4)cc3)n2)cn1 .
active

Each compound tested received a call. Report the one for Nc1nc(OC(c2ccc(-c3cccc(F)c3)cc2)C(F)(F)F)cc(-c2ccc(C[C@H](N)C(=O)O)cc2)n1 (stereo not given in full) .
inactive

====

Experiment: growth inhibition of DIPG cells – cell-based, MIPE5.0 library, qHTS (AID 1347068);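 on IC50: cells exposed to compound for 48 hours before viability readout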
Conditions: SU-DIPG-XXV viability
Results filed as inconclusive are left out. Activity calls are given as the source filed them. The limit is not given here; nearly all actives have IC50 up to about 30 µM.
Respond using exactly one of the listed classes: 1.0 = active, 0.0 = inactive

Solved cases below.
[
  {
    "Compound": "O=C(Nc1ccnc(NC(=O)C2CC2)c1)c1c(Cl)cccc1Cl",
    "Label Class": 1.0
  },
  {
    "Compound": "CCS(=O)(=O)N1CCC(C(C)n2c(C)c(C(=O)NCc3c(OC)cc(C)[nH]c3=O)c3ccccc32)CC1 (stereo not given)",
    "Label Class": 0.0
  },
  {
    "Compound": "Nc1nc(OCc2cc(Br)cs2)c2[nH]cnc2n1",
    "Label Class": 0.0
  },
  {
    "Compound": "CCNCc1nc2c(N)nc3ccccc3c2n1CC(C)(C)O",
    "Label Class": 0.0
  },
  {
    "Compound": "c1ccc2c(CCNc3ccc(Nc4ccncc4)cc3)c[nH]c2c1",
    "Label Class": 1.0
  },
  {
    "Compound": "Nc1ccccc1NC(=O)c1ccc(CNC(=O)OCc2cccnc2)cc1",
    "Label Class": 1.0
  },
  {
    "Compound": "Cc1c(Cn2c(C)nc3c(C(=O)O)cc(N4CCOCC4)cc32)cccc1C(F)(F)F",
    "Label Class": 0.0
  },
  {
    "Compound": "NC(=O)C1=C(O)[C@@]2(O)C(=O)C3=C(O)c4c(O)cccc4C[C@H]3C[C@H]2CC1=O",
    "Label Class": 0.0
  },
  {
    "Compound": "O=C(O)CCCCC(CCSCc1ccccc1)SCc1ccccc1 (stereo not given)",
    "Label Class": 0.0
  }
]

Next, consider the following compound.
Each compound tested received a call. Report the one for Fc1ccc(-c2csc3ncnc(NCc4ccc5c(c4)OCO5)c23)cc1 .
0.0

Cited source: PubChem BioAssay
